- measurement-description: Selectivity index, ratio of CC50 for rat L6 cels to IC50 for Trypanosoma brucei rhodesiense STIB900 trypomastigotes
- Type: toxicity
- recorded-conditions: L6 cells, read-out: Ratio IC50
So I've got a bunch of molecules here, and I need their selectivity ratio values.
Respond numerically, and do not add a unit to the figure.

Looking up O=[N+]([O-])c1ccc(C(c2ccn(-c3ccc([N+](=O)[O-])cc3)c2)n2ccnc2)cc1 (stereo not drawn) , I found its selectivity ratio recorded as 13

Looking up Nc1nc(N)nc(Nc2ccc([As]3SCC(CO)S3)cc2)n1 (stereo not drawn) , I found its selectivity ratio recorded as 3280

Looking up N#Cc1ccc(C(c2ccn(-c3ccc(Cl)cc3)c2)n2ccnc2)cc1 (stereo not drawn) , I found its selectivity ratio recorded as 1
